- tested.on: T1, recombinant biotinylated human PAR2 extracellular domain (residues 1-75), N-terminal AviTag, C-terminal Flag … (human, UniProt P55085 26-75, biotin on the AviTag (enzymatic biotinylation))
- T1 construct: also called Bio-human-PAR2 ECD; human PAR2 ECD; not shown: N-terminal AviTag (Avidity LLC); C-terminal Flag and poly Histidine tags
- procedure.text: HTRF competition with Par0067 IgG, pH 6.0, scFv
Assignment: determine reported pIC50 for the given binders.
# reply with the number alone; pIC50 is -log10 of concentration in mol/L

Input line: Answer with the recorded pIC50 of PaB670087 scFv (scFv, V domains shown, purified scFv; also called ZZ1ODR-B05) VH: EVQLLESGGGLVQPGGSLRLSCAASGFTFSSYAMNWVRQAPGKGLEWVSTISYHGSHISYADHHKHRFTISRDNSKNTLYLQMNSLRAEDTAVYYCARINNDPMDVWGQGTLVTVSS VL: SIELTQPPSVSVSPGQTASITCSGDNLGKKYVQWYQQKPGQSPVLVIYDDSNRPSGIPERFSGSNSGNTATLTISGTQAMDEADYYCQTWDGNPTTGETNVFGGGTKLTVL only.
Output line: 6.88

Input line: # return recorded pIC50 for input PaB670073 scFv (scFv, V domains shown, purified scFv; also called ZZ1L3F-H03) VH: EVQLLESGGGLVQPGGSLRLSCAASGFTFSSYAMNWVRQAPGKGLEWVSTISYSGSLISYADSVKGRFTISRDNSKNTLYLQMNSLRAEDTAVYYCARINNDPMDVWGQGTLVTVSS VL: SIELTQPPSVSVSPGQTASITCSGDNLGKKYVQWYQQKPGQSPVLVIYDDSNRPSGIPERFSGSNSGNTATLTISGTQAMDEADYYCQHWHGHPHHGEHNVFGGGTKLTVL
Output line: 6.37

Input line: Item PaB670079 scFv (scFv, V domains shown, purified scFv; also called ZZ1OZJ-G05) VH: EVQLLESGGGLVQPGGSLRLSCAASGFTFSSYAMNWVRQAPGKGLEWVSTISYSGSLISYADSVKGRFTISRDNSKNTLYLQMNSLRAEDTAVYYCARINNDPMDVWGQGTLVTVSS VL: SIELTQPPSVSVSPGQTASITCSGDNLGKKYVQWYQQKPGQSPVLVIYDDSNRPSGIPERFSGSNSGNTATLTISGTQAMDEADYYCQHWDGHHTTGETNHFGGGTKLTVL : provide pIC50
Output line: 6.31

Input line: Name the recorded pIC50 of the item PaB670084 scFv (scFv, V domains shown, purified scFv; also called ZZ1PXA-A05) VH: EVQLLESGGGLVQPGGSLRLSCAASGFTFSSYAMNWVRQAPGKGLEWVSTISHSGHLIHHADSHKGRFTISRDNSKNTLYLQMNSLRAEDTAVYYCARINNDPMDVWGQGTLVTVSS VL: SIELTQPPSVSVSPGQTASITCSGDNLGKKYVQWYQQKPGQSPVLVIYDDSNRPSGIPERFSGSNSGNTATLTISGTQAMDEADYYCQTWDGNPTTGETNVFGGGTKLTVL in your answer.
Output line: 6.55

Input line: # return recorded pIC50 for entry PaB670100 scFv (scFv, V domains shown, purified scFv) VH: EVQLLESGGGLVQPGGSLRLSCAASGFTFSSYAMNWVRQAPGKGLEWVSTISYHGHHISHAHHVHGRFTISRDNSKNTLYLQMNSLRAEDTAVYYCARINNDPMDVWGQGTLVTVSS VL: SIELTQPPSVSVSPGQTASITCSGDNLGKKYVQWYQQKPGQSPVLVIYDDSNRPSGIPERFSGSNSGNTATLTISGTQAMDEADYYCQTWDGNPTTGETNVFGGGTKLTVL
Output line: 7.16

Numbers sourced from patent US20180305450A1.
